From: patent US20220288069A1

- system under test: FLT3 (Homo sapiens, UniProt P36888)
- Construct: purchased ThermoFisher PV3182
- Sequence (P36888 27-993): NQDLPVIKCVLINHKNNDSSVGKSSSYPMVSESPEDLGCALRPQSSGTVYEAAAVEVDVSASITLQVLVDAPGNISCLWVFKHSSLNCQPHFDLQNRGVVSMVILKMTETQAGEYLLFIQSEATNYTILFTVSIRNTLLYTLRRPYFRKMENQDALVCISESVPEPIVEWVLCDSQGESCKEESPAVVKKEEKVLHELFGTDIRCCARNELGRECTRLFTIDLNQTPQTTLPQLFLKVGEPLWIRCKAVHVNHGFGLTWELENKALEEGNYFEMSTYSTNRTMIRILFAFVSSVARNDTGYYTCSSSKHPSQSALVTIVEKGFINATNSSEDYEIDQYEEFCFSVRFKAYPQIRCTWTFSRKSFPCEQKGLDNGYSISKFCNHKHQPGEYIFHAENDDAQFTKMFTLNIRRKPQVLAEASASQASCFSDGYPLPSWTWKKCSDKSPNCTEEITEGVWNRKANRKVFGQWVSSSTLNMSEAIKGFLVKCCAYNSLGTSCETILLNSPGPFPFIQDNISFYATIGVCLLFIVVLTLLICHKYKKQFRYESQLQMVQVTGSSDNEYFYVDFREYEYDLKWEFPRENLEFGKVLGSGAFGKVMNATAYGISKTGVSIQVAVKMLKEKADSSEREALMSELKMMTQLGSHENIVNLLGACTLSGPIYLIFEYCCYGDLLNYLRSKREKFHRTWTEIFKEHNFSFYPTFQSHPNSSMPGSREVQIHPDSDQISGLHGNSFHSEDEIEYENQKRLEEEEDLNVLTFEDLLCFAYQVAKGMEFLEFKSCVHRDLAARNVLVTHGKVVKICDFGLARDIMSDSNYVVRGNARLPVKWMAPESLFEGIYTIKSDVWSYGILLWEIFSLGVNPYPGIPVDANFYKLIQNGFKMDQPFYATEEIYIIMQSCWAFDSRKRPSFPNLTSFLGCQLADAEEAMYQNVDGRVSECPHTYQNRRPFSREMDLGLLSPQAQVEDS
- experiment description: Caliper mobility shift kinase inhibition assay, FLT3
- Type: biochemical
- details: recombinant kinase; enzyme 0.1 nM, ATP 95 μM, incubation 3 hr
- Method: Compounds' inhibition of recombinant kinases (FGR, FLT3, FMS, KIT, or RON) was measured using Caliper mobility shift assay, which is based on the difference in capillary electrophoresis mobility of a fluorescent-tagged peptide as a result of a phosphorylation by the kinase under study. […]
assay endpoint: IC50

• C=CC(=O)N(C)[C@@H](C)C(=O)NCCNC(=O)c1c[nH]c(/C=C2\C(=O)Nc3ccc(F)cc32)c1C = < 10 nM
• C=CC(=O)N1CCC[C@H]1C(=O)NCCNc1cc(Nc2ncc(-c3ccncc3)s2)nc(C)n1 = < 10 nM
• CCC(=O)N(C)[C@@H](C)C(=O)NCCNC(=O)c1c[nH]c(/C=C2\C(=O)Nc3ccc(F)cc32)c1C = 10 to 100 nM
• Cc1c(C(=O)NCCNC(=O)[C@H](C)N(C)C(=O)/C=C/CN(C)C)c[nH]c1/C=C1\C(=O)Nc2ccc(F)cc21 = < 10 nM
